- EXPERIMENTAL_TARGET: T1, EsCas13d, nuclease-dead (Eubacterium siraeum, UniProt B0MS50, R295A;H300A;R849A;H854A)
- T1 sequence: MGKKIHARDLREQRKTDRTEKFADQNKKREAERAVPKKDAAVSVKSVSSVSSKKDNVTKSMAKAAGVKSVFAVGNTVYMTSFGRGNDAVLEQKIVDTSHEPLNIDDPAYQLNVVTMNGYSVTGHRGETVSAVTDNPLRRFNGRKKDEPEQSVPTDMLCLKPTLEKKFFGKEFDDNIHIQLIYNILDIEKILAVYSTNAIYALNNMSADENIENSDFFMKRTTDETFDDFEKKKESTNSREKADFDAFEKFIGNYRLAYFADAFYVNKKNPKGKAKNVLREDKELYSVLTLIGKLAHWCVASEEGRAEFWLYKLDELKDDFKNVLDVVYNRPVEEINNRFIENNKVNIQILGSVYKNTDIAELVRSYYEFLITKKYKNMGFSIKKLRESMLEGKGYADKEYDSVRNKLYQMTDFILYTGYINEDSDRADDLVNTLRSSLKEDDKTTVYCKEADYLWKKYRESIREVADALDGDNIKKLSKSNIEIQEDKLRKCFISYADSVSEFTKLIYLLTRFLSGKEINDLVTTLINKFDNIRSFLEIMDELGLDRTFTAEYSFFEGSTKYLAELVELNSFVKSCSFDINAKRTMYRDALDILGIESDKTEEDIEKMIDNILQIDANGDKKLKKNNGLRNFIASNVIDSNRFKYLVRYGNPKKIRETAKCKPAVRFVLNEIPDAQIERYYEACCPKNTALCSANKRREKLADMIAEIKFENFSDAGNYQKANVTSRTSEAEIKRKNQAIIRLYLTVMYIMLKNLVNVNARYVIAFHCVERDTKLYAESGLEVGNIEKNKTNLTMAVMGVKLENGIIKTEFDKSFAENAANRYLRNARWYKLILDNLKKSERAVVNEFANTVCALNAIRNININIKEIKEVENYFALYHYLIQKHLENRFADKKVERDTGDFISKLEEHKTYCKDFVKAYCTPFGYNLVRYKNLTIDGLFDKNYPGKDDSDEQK
- METHOD_DESCRIPTION: crRNA (strand 1, pre-loaded); Mg2+; 40 mM Tris-HCl pH 7.5, 150 mM NaCl, 6 mM MgCl2, 1 mM DTT, 0.1% Tween-20, 0.2 mg/ml BSA; 25 C; 10 min per concentration, then washed
- CONDITION_LABEL: tags: His6-TwinStrep-SUMO cleaved; N-terminal SNAP kept (SNAP-Surface 488); label: 3' end held by stalled T7 RNA polymerase
OBSERVABLE: pKd
Scale note: pKd = -log10(concentration in M).

Below: 2 binders and their reported pKd.
target 1 G17A,A18G (mixed) RNA 1: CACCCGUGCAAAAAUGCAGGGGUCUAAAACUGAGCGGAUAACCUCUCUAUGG RNA 2: GGGAAUGGAUCCACAUCUACGAAUUCGUACCAUGAAGAGGUUAUCCGCUCACCGAGAUCGGAAGAGCACACGU
7.09
target 3 G4U,G19U (mixed) RNA 1: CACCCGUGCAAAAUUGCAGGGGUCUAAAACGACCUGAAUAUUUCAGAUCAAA RNA 2: GGGAAUGGAUCCACAUCUACGAAUUCGUUUUUUAUCUGAAAUAUUCAUGUCUGCAGAUCGGAAGAGCACACGU
7.11

Now for the binder whose pKd we want.
INPUT: Using the record for target 2 MT 5'PFS GCA 3'PFS AAG (mixed) RNA 1: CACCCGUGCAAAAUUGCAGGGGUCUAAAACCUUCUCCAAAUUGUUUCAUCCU RNA 2: GGGAAUGGAUCCACAUCUACGAAUUCGCAAGGAUGAAACAAUUUGGAGAAGAAGAGAUCGGAAGAGCACACGU , report its pKd.
OUTPUT: 8.11
